biological target: CDK6-CYCLIND3 (Homo sapiens, UniProt Q00534); construct: purchased Carna; experiment: Microfluidic LabChip kinase inhibition assay, CDK6-CyclinD3; assay type: biochemical; conditions: Table 2; 300 μM ATP, 2 nM enzyme; read-out: CDK6 IC50
Sequence (Q00534 whole entry): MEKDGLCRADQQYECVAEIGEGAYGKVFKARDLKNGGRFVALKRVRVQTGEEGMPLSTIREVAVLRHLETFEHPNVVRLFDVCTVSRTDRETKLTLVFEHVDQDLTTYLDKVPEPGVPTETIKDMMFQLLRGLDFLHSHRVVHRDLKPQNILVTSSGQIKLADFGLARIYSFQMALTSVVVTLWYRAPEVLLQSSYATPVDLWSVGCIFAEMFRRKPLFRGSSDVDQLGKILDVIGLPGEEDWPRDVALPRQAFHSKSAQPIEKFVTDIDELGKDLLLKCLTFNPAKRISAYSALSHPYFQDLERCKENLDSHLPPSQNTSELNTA
Sequence (P30281 whole entry partner): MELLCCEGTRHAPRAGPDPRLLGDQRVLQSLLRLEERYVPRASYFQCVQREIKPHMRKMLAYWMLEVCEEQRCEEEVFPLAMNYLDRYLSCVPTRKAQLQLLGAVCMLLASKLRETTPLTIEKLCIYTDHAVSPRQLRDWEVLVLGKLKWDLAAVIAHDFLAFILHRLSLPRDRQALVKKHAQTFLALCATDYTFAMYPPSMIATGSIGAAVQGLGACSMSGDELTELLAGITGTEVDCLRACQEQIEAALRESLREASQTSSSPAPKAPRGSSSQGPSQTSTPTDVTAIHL
Measurement type: pIC50
In plain terms, pIC50 is the concentration in mol/L turned into minus its base-10 logarithm.

Fill in: pIC50 of CC(C)N1CCN(c2ccc(Nc3ncc4c(n3)N(C3CCCC3)C3(CCNC3=O)C4)nc2)CC1 (stereo not shown) is ___ 5.52

Which pIC50 reading was recorded for the molecule CN1CCN(c2ccc(Nc3ncc4c(n3)N(C3CCCC3)C3(CCNC3=O)C4)cc2F)CC1 (stereo not shown) ? 6.89

Need pIC50, item CC(C)N1CCN(c2ccc(Nc3ncc4c(n3)N(C3CCCC3)C3(CC(=O)NC3=O)C4)cn2)CC1 (stereo not shown) 6.67

// pIC50 lookup, key: CN1CCN(c2ccc(Nc3ncc4c(n3)N(C3CCCC3)C3(CC(=O)NC3=O)C4)cn2)CC1 (stereo not shown) 6.76

Give the measured pIC50 of CC(C)N1CCN(c2ccc(Nc3ncc4c(n3)N(C3CCCC3)C3(CCNC3=O)C4)cn2)CC1 (stereo not shown) . 6.66

====

biological target: CDK6-CYCLIND3 (Homo sapiens); construct: purchased Carna; assay: Microfluidic LabChip kinase inhibition assay, CDK6-CyclinD3; assay type: biochemical; details: CDK6 CyclinD3 IC50 (μM), Table 3b; 300 μM ATP
Measurement type: IC50 (µM)
# number only, unit µM dropped from output

Any idea what IC50 was measured for CN1CCN(c2ccc(Nc3ncc4c(n3)N(C3CCCC3)C3(CCNC3=O)C4)cc2F)CC1 (single isomer, unassigned) [Compound C197] ? 0.258

====

target: CDK9-CYCLINT1 (Homo sapiens); construct: purchased Carna; assay: Microfluidic LabChip kinase inhibition assay, CDK9-CyclinT1; format: biochemical
Sequence (P50750 whole entry): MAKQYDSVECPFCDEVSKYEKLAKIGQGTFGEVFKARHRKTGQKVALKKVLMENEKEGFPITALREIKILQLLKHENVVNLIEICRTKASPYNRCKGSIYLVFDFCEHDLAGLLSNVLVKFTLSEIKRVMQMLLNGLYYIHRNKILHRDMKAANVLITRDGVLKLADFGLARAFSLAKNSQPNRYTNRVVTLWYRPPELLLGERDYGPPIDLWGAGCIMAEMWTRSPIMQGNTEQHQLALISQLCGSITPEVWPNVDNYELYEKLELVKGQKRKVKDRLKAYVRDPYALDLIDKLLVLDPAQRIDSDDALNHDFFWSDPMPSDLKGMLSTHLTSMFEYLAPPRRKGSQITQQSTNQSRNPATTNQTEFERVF
Sequence (O60563 whole entry partner): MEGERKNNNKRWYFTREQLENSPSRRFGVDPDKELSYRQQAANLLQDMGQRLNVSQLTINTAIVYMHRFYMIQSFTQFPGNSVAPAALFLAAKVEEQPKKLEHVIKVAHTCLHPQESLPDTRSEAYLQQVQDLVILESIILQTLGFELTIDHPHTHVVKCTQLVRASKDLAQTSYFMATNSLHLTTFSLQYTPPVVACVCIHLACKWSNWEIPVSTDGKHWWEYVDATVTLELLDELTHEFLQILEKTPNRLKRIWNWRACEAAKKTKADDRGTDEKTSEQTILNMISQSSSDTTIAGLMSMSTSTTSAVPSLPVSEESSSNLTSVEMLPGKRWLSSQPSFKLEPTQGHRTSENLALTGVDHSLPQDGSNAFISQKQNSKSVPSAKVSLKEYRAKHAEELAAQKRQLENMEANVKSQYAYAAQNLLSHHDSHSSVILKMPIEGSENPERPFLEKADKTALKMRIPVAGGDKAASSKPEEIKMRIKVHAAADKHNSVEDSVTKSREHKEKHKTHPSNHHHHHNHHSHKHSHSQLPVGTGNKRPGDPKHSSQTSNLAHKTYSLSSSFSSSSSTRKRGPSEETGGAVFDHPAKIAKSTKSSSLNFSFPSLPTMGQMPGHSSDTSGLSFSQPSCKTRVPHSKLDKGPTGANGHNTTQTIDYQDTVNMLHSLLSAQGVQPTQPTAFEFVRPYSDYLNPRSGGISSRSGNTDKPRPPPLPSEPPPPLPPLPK
I'd appreciate it if you could supply pIC50 values for the items below.
# pIC50: negative log10 of molar concentration; output just the value

# get_value(readout='pIC50', item= CN1CCN(c2ccc(Nc3ncc4c(n3)N(C3CCCC3)C3(CC(=O)NC3=O)C4)cc2)CC1 (single isomer, unassigned) [Compound C136] ) 7.09

Endpoint output: pIC50 of CN1CCN(c2ccc(Nc3ncc4c(n3)N(C3CCCC3)C3(CCNC3=O)C4)cc2F)CC1 (single isomer, unassigned) [Compound C197] . Value? 7.33

====

What log10 of IC50 was measured for each of the following?
biological target: UniProt:P11802; experiment: Microfluidic LabChip kinase inhibition assay, CDK4-CyclinD1; settings: CDK4 CyclinD1 IC50 (μM), Table 3b; 200 μM ATP; second value in parentheses on the next line
Sequence (P11802 whole entry): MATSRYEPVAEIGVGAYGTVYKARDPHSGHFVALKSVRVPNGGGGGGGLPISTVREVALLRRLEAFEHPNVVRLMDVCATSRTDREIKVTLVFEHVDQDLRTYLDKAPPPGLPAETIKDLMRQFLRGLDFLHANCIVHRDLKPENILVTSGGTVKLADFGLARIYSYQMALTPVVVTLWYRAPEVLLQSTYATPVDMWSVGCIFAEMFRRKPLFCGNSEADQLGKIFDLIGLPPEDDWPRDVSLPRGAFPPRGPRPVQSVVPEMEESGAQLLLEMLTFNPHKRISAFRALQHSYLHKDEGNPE
Sequence (P24385 whole entry partner): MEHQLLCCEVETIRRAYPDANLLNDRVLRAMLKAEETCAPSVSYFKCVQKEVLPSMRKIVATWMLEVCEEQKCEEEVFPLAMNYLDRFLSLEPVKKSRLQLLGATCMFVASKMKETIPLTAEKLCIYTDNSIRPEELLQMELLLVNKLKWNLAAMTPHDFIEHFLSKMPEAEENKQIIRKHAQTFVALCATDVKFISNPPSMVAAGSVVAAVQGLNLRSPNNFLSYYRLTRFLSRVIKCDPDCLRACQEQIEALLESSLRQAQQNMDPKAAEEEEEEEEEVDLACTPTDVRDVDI
Scale: log10; quantity: IC50; unit before log: µM

Write down the reported log10 of IC50 of CN(C)[C@@H]1CCN(c2ccc(Nc3ncc4c(n3)N(C3CCCC3)C3(CCNC3=O)C4)cc2F)C1 (stereo partly shown) , test system: UniProt:P11802. -0.85

Quick check: log10 of IC50 on UniProt:P11802, item Cc1cc(Nc2ncc3c(n2)N(C2CCCC2)C2(CCNC2=O)C3)ccc1N1CCN(C(C)C)CC1 (stereo not shown) ? -0.43

# returns recorded log10 of IC50 (system: UniProt:P11802) for CN1CCN(c2ccc(Nc3ncc4c(n3)N(C3CCCC3)C3(CCNC3=O)C4)cc2)CC1 (stereo not shown) -0.94

For the record CN1CCN(c2ccc(Nc3ncc4c(n3)N(C3CCCC3)C3(CCNC3=O)C4)cn2)CC1 (stereo not shown) , what value of log10 of IC50 is listed for UniProt:P11802? -0.99

Hello, I am looking for reported log10 of IC50 with UniProt:P11802 for CN(C)[C@@H]1CCN(C(=O)c2ccc(Nc3ncc4c(n3)N(C3CCCC3)C3(CCNC3=O)C4)cc2)C1 (stereo partly shown) . Could you help? -1.17

Look up log10 of IC50 with UniProt:P11802 for this molecule: O=C1NCCC12Cc1cnc(Nc3ccc(N4CCC(N5CCOCC5)CC4)c(F)c3)nc1N2C1CCCC1 (stereo not shown) -1.25

What reported log10 of IC50 corresponds to CC1CN(c2ccc(Nc3ncc4c(n3)N(C3CCCC3)C3(CC(=O)NC3=O)C4)cc2)CC(C)N1 (stereo not shown) on UniProt:P11802? -1.18

Identify the measured log10 of IC50 of O=C1NCCC12Cc1cnc(Nc3ccc(N4CCNCC4)c(F)c3)nc1N2C1CCCC1 (single isomer, unassigned) [Compound C203] for UniProt:P11802. -1.61

Param readout= log10 of IC50; system= UniProt:P11802; entry= CN1CCN(c2ccc(Nc3ncc4c(n3)N(C3CCCC3)C3(CC(=O)NC3=O)C4)cc2)CC1 (single isomer, unassigned) [Compound C136] ; returns value. -1.59

Notebook entry, UniProt:P11802 assay: log10 of IC50 of O=C1NCCC12Cc1cnc(Nc3ccc(OCCN4CCCC4)nc3)nc1N2C1CCCC1 (stereo not shown) = ? -0.63

Lab note: need log10 of IC50 for CN1CCC(c2ccc(Nc3ncc4c(n3)N(C3CCCC3)C3(CCNC3=O)C4)cc2)CC1 (stereo not shown) on UniProt:P11802, anyone have it? -0.78

API: value(readout= log10 of IC50, system= UniProt:P11802, query= CN1CC2(C1)CN(c1ccc(Nc3ncc4c(n3)N(C3CCCC3)C3(CC(=O)NC3=O)C4)cc1F)C2 (stereo not shown) ) -0.23

Quick check: log10 of IC50 on UniProt:P11802, item CN1CCN(c2ccc(Nc3ncc4c(n3)N(C3CCCCC3)C3(CCNC3=O)C4)nc2)CC1 (stereo not shown) ? -0.43

Data credit: patent US20230065740A1
